Would you mind telling me the reported IC50 of each entry?
- TARGET: HCV NS3/4A protease genotype 1b (Hepatitis C virus genotype 1b)
- PROCEDURE SUMMARY: HCV NS3/4A protease time-resolved fluorescence (TRF) assay, Ki against genotype 1b
- Format: biochemical
- COND: IC50 [gt-1b] (nM), NS3/4A genotype 1b, enzyme 0.2 nM
- Text: Measuring NS3/4A Inhibitory Activity (Ki) Against Genotype 1b, Against A156T Mutants and Against Genotype 3a One assay for measuring inhibitory activity is HCV NS3 protease time-resolved fluorescence (TRF) assay as described below and in Mao et al., Anal. Biochem. 373:1-8, 2008 and International Patent Application Publication WO 2006/102087. […]
Numbers only, in nM.

COMPOUND: Cc1nc2ccc(OC(F)(F)F)cc2c2c1O[C@]1(CC2)C[C@H]2C(=O)N[C@]3(C(=O)NS(=O)(=O)C4(C)CC4)C[C@H]3/C=C\CCCCC[C@H](NC(=O)OC(C)(C)CCS(=O)(=O)C(C)C)C(=O)N2C1 [Example 305]
RESULT NUMBER: 0.029

COMPOUND: Cc1nc2ccccc2c2c1O[C@]1(CC2)C[C@H]2C(=O)N[C@]3(C(=O)NS(=O)(=O)C4(C)CC4)C[C@H]3/C=C\CCCCC[C@H](NC(=O)OC(C)(C)C(F)(F)C(F)(F)F)C(=O)N2C1 [Example 300]
RESULT NUMBER: 0.021

Inquiry: Give me measured IC50, please, for this compound: CCc1nc2ccc(OC)cc2c2c1O[C@]1(CC2)C[C@H]2C(=O)N[C@]3(C(=O)NS(=O)(=O)C4(C)CC4)C[C@H]3/C=C\CCCCC[C@H](NC(=O)OC(C)(C)C)C(=O)N2C1 [Example 312]
Reply text: 0.009
